Test system: P. falciparum 3D7 in RBCs, SYBR Green DNA fluorescence
protocol text: growth inhibition of P. falciparum 3D7, dose response, 3D7 strain, red blood cells, SYBR Green, cherry-picked (AID 652047)
measure name: AC35

Here are 3 compounds together with their reported answers.
[
  {
    "compound": "O=[N+]([O-])c1ccc(Sc2cccc[n+]2[O-])c2nonc12",
    "target of assay": "P. falciparum 3D7 in RBCs, SYBR Green DNA fluorescence",
    "AC35": "0.657 µM"
  },
  {
    "compound": "Oc1c(I)cc(Cl)c2cccnc12",
    "target of assay": "P. falciparum 3D7 in RBCs, SYBR Green DNA fluorescence",
    "AC35": "2.33 µM"
  },
  {
    "compound": "CN(C)c1nc(SCc2ccc(Cl)cc2)nc2c1CCCC2",
    "target of assay": "P. falciparum 3D7 in RBCs, SYBR Green DNA fluorescence",
    "AC35": "40.2 µM"
  }
]

Item under review: CCCS(=O)(=O)c1c(S(=O)(=O)CCC)c2c(C)cccn2c1C(=O)N/N=C/c1cc(O)cc(O)c1 . Reported AC35?
8.14 µM

GET /values?readout=AC35&item= Cc1cccc(Oc2nc(-c3ccccn3)nc3ccccc23)c1
3.89 µM

What does the record list as AC35 for CCN1C(=O)C(CC(=O)Nc2ccccc2Cl)N(NC(=O)c2cccc(F)c2)C1=S (stereo unspecified) ?
21.2 µM

* * *

Listed below: AC35 values for each entry.
Tested on: P. falciparum 3D7 in RBCs, SYBR Green DNA fluorescence
protocol text: growth inhibition of P. falciparum 3D7, dose response, 3D7 strain, red blood cells, SYBR Green, cherry-picked (AID 652047)

[
  {
    "compound": "COc1ccc(O)c(C(=O)CC(=O)c2ccccc2C)c1",
    "AC35": "8.89 µM"
  },
  {
    "compound": "COc1cnc(-c2ccccn2)nc1N(C)c1ccccc1",
    "AC35": "0.962 µM"
  },
  {
    "compound": "CCCCCCn1c(=O)c(C(=O)Nc2ncccc2C)c(O)c2ccccc21",
    "AC35": "2.57 µM"
  },
  {
    "compound": "Cc1ccc(NC(=O)CN(C)C(=O)c2cccnc2Nc2cccc(C(F)(F)F)c2)cc1",
    "AC35": "7.58 µM"
  }
]

Bench note: what AC35 did Oc1cccc2ccc(Nc3ccccn3)nc12 show?
0.182 µM

What value of AC35 has been recorded for this entry: CC1CCc2c(C(=O)Nc3ccccn3)csc2C1 (stereo unspecified)
28.7 µM

* * *

System: P. falciparum 3D7 in RBCs, SYBR Green DNA fluorescence
protocol text: growth inhibition of P. falciparum 3D7, dose response, 3D7 strain, red blood cells, SYBR Green, cherry-picked (AID 652047)
Measured AC35, listed per entry.

For orientation, consider the following solved cases.
[
  {
    "molecule": "O=C(NCCC1=CCCCC1)c1c(O)nc2sccn2c1=O",
    "target of assay": "P. falciparum 3D7 in RBCs, SYBR Green DNA fluorescence",
    "AC35": "17 µM"
  },
  {
    "molecule": "Oc1ccc(N=Nc2ccc3c(c2)OCCO3)c2cccnc12",
    "target of assay": "P. falciparum 3D7 in RBCs, SYBR Green DNA fluorescence",
    "AC35": "0.706 µM"
  },
  {
    "molecule": "c1ccc(C(=NNc2nc3ccccc3s2)c2ccccn2)cc1",
    "target of assay": "P. falciparum 3D7 in RBCs, SYBR Green DNA fluorescence",
    "AC35": "1.5 µM"
  },
  {
    "molecule": "CCCCNc1c(-c2cccc(Sc3ccc(OC)cc3)c2)nc2ccccn12",
    "target of assay": "P. falciparum 3D7 in RBCs, SYBR Green DNA fluorescence",
    "AC35": "15.3 µM"
  },
  {
    "molecule": "COc1cnc(-c2ccccn2)nc1Oc1ccc(C(C)(C)C)cc1",
    "target of assay": "P. falciparum 3D7 in RBCs, SYBR Green DNA fluorescence",
    "AC35": "2.05 µM"
  }
]

Entry CN1CCN(C(=O)c2cc(COc3ccc(F)cc3Cl)on2)CC1c1ccccc1 (stereo unspecified) has what AC35?
38.8 µM

For Cc1c(C(=O)O)cccc1-c1ccc(/C=N/Nc2ccc(Br)cc2)o1 , what is its reported AC35?
20.2 µM

Could you share which AC35 value was measured for NC(=O)N=Nc1c2[nH]c3ccccc3nc-2c2ccccc12 ?
10.7 µM

Record request: AC35 value, item O=C(COc1ccccc1F)Nc1nc(-c2ccccn2)cs1
10.5 µM

# lookup: AC35 of Cc1nc2ccc(C(C(F)(F)F)(C(F)(F)F)C(F)(F)F)cc2[nH]1
17.8 µM

Recorded AC35 for COc1cc(NS(=O)(=O)c2ccc(C)cc2)c2ncccc2c1 , please?
6.47 µM
